# credit: PubChem BioAssay (EPA / NIEHS)

# assay_info: ATG_CMV_CIS: Attagene CIS-FACTORIAL HepG2 Assay for human CMV (Internal Marker) (AID 2282928);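 note: endpoint acts as a background internal control marker rather than a target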
# condition_notes: HepG2 CMV promoter reporter, transcription factor profiling; actives raise or lower the signal
The source made the active and inactive calls. Rule for the calls: active = hit-call score of the fitted dose curve at least 0.9, where 1 is the maximum; inactive = score below 0.9.
Permitted responses: true (1) = active, false (0) = inactive

# molecule, class
rows = [
    ("c1ccc2ccccc2c1", "false (0)"),
    ("c1ccc2n[nH]nc2c1", "false (0)"),
    ("COc1cc(C(=O)NC2CCN(C)CC2)ccc1Nc1ncc2c(n1)N(C1CCCC1)CC(F)(F)C(=O)N2C", "false (0)"),
    ("CN1C(=O)CC[C@H]1c1cccnc1", "false (0)"),
    ("CCCCCCCCCCCO", "false (0)"),
]

Asked: Please share the test call associated with `Cc1cc2c(cc1C(F)(F)F)N(C(=O)Nc1ccc(Oc3cccnc3C)nc1)CC2` .
Given back: false (0)

Asked: Please share the test call associated with `Cc1ccc(C(C)C)cc1` .
Given back: false (0)

Asked: Please share the test call associated with `O=C(O)Cc1cc(I)c(Oc2ccc(O)c(I)c2)c(I)c1` .
Given back: false (0)

Asked: Please share the test call associated with `OCCO` .
Given back: false (0)

* * *

# Read-out: matrix metalloproteinase-3 (MMP3), MMP3 (gene 4314)
# assay_info: LTEA_HepaRG_MMP3: Life Technologies and Expression Analysis (LTEA) Assay for matrix metalloproteinase-3 (MMP3) using HepaRG (AID 2283519)
# condition_notes: mRNA level, 48 h; actives raise or lower the signal
The source made the active and inactive calls. Rule for the calls: active = hit-call score of the fitted dose curve at least 0.9, where 1 is the maximum; inactive = score below 0.9.
parameter: outcome

# structure_as_smiles, outcome
data = [
    ("Cc1cn([C@H]2C[C@H](N=[N+]=[N-])[C@@H](CO)O2)c(=O)[nH]c1=O", "inactive"),
    ("O=c1c(-c2ccc(O)cc2)coc2cc(O)cc(O)c12", "inactive"),
    ("CN(C[C@@H](CC[N+]12CCC(C3CCCCC3)(CC1)CC2)c1ccc(Cl)c(Cl)c1)C(=O)c1cc(C(F)(F)F)cc(C(F)(F)F)c1", "inactive"),
    ("O=C(O)Cc1cc(I)c(Oc2ccc(O)c(I)c2)c(I)c1", "inactive"),
]

Lookup result for `O=C1CCC(C2CCCCC2)CC1` ; measured outcome: inactive

* * *

# Read-out: CD38, CD38 (gene 952)
# assay_info: BSK_SAg_CD38: BioMAP Diversity Plus: SAg Assay for CD38 Biomarker Activity (AID 2283087)
# condition_notes: primary human HUVEC with PBMC; actives raise or lower the signal
Activity calls are given as the source filed them. The calls were made as follows: active = hit-call score of the fitted dose curve at least 0.9, where 1 is the maximum; inactive = score below 0.9.
Permitted responses: Y = active, N = inactive

Solved cases (5 shown):
# structure_as_smiles, class
rows = [
    ("OCCO", "N"),
    ("O=C(O)Cn1c(=O)n(Cc2ccc(Br)cc2F)c(=O)c2ccc(Cl)cc21", "N"),
    ("Cc1ccc(C(C)C)cc1", "N"),
    ("c1ccc(C[n+]2cccc3ccccc32)cc1", "N"),
    ("O=C1c2ccccc2C(=O)N1CCc1noc(-c2ccc(CN3CCCCCC3)s2)n1", "N"),
]

# input for lookup
Asked: Please share the test call associated with `CCN(Cc1cccnc1)C(=O)c1cccc(Cl)c1[C@]1(C)C(=O)N(Cc2ccc(OC)cc2OC)c2ccc(Cl)cc21` .
Given back: Y

* * *

# assay_info: CCTE_Padilla_ZF_144hpf_TERATOSCORE: (Legacy) CCTE's 144 Hour Post-fertilization zebrafish Assay Teratoscore, Padilla Lab (AID 2283679)
Active and inactive are the calls of the source. The calls were made as follows: active = hit-call score of the fitted dose curve at least 0.9, where 1 is the maximum; inactive = score below 0.9.
Permitted responses: 1.0 = active, 0.0 = inactive

# structure_as_smiles, class
records = [
    ("Oc1ccc2ccccc2c1", 1.0),
    ("Cc1ccc2oc(CN(Cc3ccccc3)C(=O)Nc3c(F)cc(F)cc3F)c(-c3ccc(Cl)cc3)c2c1", 0.0),
    ("CC(C)(C)c1csc(-c2cc3cc(OCc4ccccc4CC(=O)O)ccc3o2)n1", 1.0),
]

Asked: Please share the test call associated with `CN(C[C@@H](CC[N+]12CCC(C3CCCCC3)(CC1)CC2)c1ccc(Cl)c(Cl)c1)C(=O)c1cc(C(F)(F)F)cc(C(F)(F)F)c1` .
Given back: 1.0

Asked: Please share the test call associated with `O=C1O[C@H]([C@@H](O)CO)C(O)=C1O` .
Given back: 0.0

* * *

# assay_info: BSK_3C_Proliferation: Cell Proliferation Assessment in the BioMAP Diversity Plus: 3C Assay (AID 2283006)
# condition_notes: primary human endothelial cells (HUVEC)
The source made the active and inactive calls. How the source made its calls: active means hit-call score of the fitted dose curve at least 0.9, where 1 is the maximum; inactive means score below 0.9.
Permitted responses: active, inactive

# structure_as_smiles, class
measured = [
    ("Cc1cn([C@H]2C[C@H](N=[N+]=[N-])[C@@H](CO)O2)c(=O)[nH]c1=O", "inactive"),
]

Asked: Please share the test call associated with `CCCCCCCCN(C)CCCCCCCC` .
Given back: inactive

Asked: Please share the test call associated with `O=C(O)Cn1c(=O)n(Cc2ccc(Br)cc2F)c(=O)c2ccc(Cl)cc21` .
Given back: inactive

Asked: Please share the test call associated with `O=C1CCC(C2CCCCC2)CC1` .
Given back: inactive

Asked: Please share the test call associated with `Cc1cc2c(cc1C(F)(F)F)N(C(=O)Nc1ccc(Oc3cccnc3C)nc1)CC2` .
Given back: active

* * *

# Read-out: Forkhead box O3 (FOXO3), FOXO3 (gene 2309)
# assay_info: LTEA_HepaRG_FOXO3: Life Technologies and Expression Analysis (LTEA) Assay for Forkhead box O3 (FOXO3) using HepaRG (AID 2283459)
# condition_notes: mRNA level, 48 h; actives raise or lower the signal
Activity calls are given as the source filed them. Rule for the calls: active = hit-call score of the fitted dose curve at least 0.9, where 1 is the maximum; inactive = score below 0.9.
Permitted responses: 1 (active), -1 (inactive)

Solved cases (2 shown):
# compound, class
records = [
    ("Cc1cc(F)ccc1-c1cc(N2CC[C@@H](O)[C@H]2CO)ncc1N(C)C(=O)C(C)(C)c1cc(C(F)(F)F)cc(C(F)(F)F)c1", -1),
    ("O=C1CCC(C2CCCCC2)CC1", -1),
]

Asked: Please share the test call associated with CC(O)CC(C)(C)O (stereo not drawn) .
Given back: -1

Asked: Please share the test call associated with `CCCCCCCCOC(=O)c1cc(O)c(O)c(O)c1` .
Given back: -1

Asked: Please share the test call associated with `Oc1ccccc1` .
Given back: -1

Asked: Please share the test call associated with `CCCOC(=O)c1cc(O)c(O)c(O)c1` .
Given back: -1

Asked: Please share the test call associated with `CCN(Cc1cccnc1)C(=O)c1cccc(Cl)c1[C@]1(C)C(=O)N(Cc2ccc(OC)cc2OC)c2ccc(Cl)cc21` .
Given back: 1

Asked: Please share the test call associated with `Cc1c2ccccc2c(C)c2c1ccc1ccccc12` .
Given back: 1

Asked: Please share the test call associated with `O=C(OCCCCCCOC(=O)c1ccccc1)c1ccccc1` .
Given back: -1

Asked: Please share the test call associated with `OCCO` .
Given back: 1

Asked: Please share the test call associated with `COc1cccc([C@H](O)C2CCN(CCc3ccc(F)cc3)CC2)c1OC` .
Given back: -1

Asked: Please share the test call associated with `NCc1cccc(C2CCN(C(=O)c3ccc(C#Cc4ccccc4F)o3)CC2)c1` .
Given back: -1

* * *

# Read-out: Monocyte Chemoattractant Protein-1 (MCP1), CCL2 (gene 6347)
# assay_info: BSK_3C_MCP1: BioMAP Diversity Plus: 3C Assay for Monocyte Chemoattractant Protein-1 (MCP1) Biomarker Activity (AID 2283017)
# condition_notes: primary human endothelial cells (HUVEC); actives raise or lower the signal
The source made the active and inactive calls. Rule for the calls: active = hit-call score of the fitted dose curve at least 0.9, where 1 is the maximum; inactive = score below 0.9.
Permitted responses: active, inactive

Solved cases (4 shown):
# structure_as_smiles, class
data = [
    ("NCc1cccc(C2CCN(C(=O)c3ccc(C#Cc4ccccc4F)o3)CC2)c1", "active"),
    ("Clc1cc(Cl)c2c(c1)N=C1CCCCCN1C2", "inactive"),
    ("O=CCCCC=O", "inactive"),
    ("CCOC(=O)O[C@H](C)OC(=O)c1ccc2c(c1)cc(C(=O)NC1CCN(C(C)C)CC1)n2Cc1cc(-c2ccc(Cl)s2)on1", "active"),
]

# input for lookup
Asked: Please share the test call associated with `c1ccc(C[n+]2cccc3ccccc32)cc1` .
Given back: inactive

* * *

# assay_info: Tanguay_ZF_120hpf_JAW_legacy: (Legacy) Oregon State University Tanguay Lab 120 Hour Post-fertilization zebrafish Assay for Jaw Malformation (AID 2283638)
Records with an inconclusive call do not appear. Calls of active or inactive are those of the source. The calls were made as follows: active = hit-call score of the fitted dose curve at least 0.9, where 1 is the maximum; inconclusive = response in the unintended direction; inactive = score below 0.9.
Permitted responses: Yes = active, No = inactive

# compound, class
data = [
    ("Cc1oc2c(NC(=O)c3c(Cl)cccc3Cl)cccc2c1C(C)(C)O", "No"),
]

# input for lookup
Asked: Please share the test call associated with `CCO[Si](CCCNC(N)=O)(OCC)OCC` .
Given back: No

* * *

# Read-out: Paternally Expressed 10 (PEG10), PEG10 (gene 23089)
# assay_info: LTEA_HepaRG_PEG10: Life Technologies and Expression Analysis (LTEA) Assay for Paternally Expressed 10 (PEG10) using HepaRG (AID 2283520)
# condition_notes: mRNA level, 48 h; actives raise or lower the signal
Calls of active or inactive are those of the source. How the source made its calls: active means hit-call score of the fitted dose curve at least 0.9, where 1 is the maximum; inactive means score below 0.9.
Permitted responses: active, inactive

Solved cases (8 shown):
# compound, class
rows = [
    ("CCN(CC)C(=O)c1cc(S(=O)(=O)Cc2ccccc2)c(N2CCC(c3ccccc3)CC2)cc1N(CC)CCN(C)C", "inactive"),
    ("c1ccc(C[n+]2cccc3ccccc32)cc1", "inactive"),
    ("CC(C)(C)c1cc(/C=C2\\SC(N)=NC2=O)cc(C(C)(C)C)c1O", "inactive"),
    ("COc1ccc2cc(S(=O)(=O)N[C@H](CC(=O)N[C@H](Cc3ccc(CN4[C@H](C)CCC[C@@H]4C)cc3)C(=O)N(C)C(C)C)c3ccc4c(c3)OCO4)ccc2c1", "active"),
    ("OC12N=C(c3ccccc3)SC1Cc1cc(Cl)ccc12 (stereo not given)", "active"),
    ("c1ccc2n[nH]nc2c1", "inactive"),
    ("Clc1cc(Cl)c2c(c1)N=C1CCCCCN1C2", "inactive"),
    ("Cc1ccc(C(C)C)cc1", "inactive"),
]

Asked: Please share the test call associated with CC(O)CC(C)(C)O (stereo not given) .
Given back: inactive

Asked: Please share the test call associated with `CCCOC(=O)c1cc(O)c(O)c(O)c1` .
Given back: inactive

Asked: Please share the test call associated with `O=C1CCC(C2CCCCC2)CC1` .
Given back: inactive

Asked: Please share the test call associated with `O=C(O)c1ccccc1C(=O)OCc1ccccc1` .
Given back: inactive

Asked: Please share the test call associated with `Cc1cc(F)ccc1-c1cc(N2CC[C@@H](O)[C@H]2CO)ncc1N(C)C(=O)C(C)(C)c1cc(C(F)(F)F)cc(C(F)(F)F)c1` .
Given back: inactive

Asked: Please share the test call associated with `CCCCCCCCN(C)CCCCCCCC` .
Given back: inactive

Asked: Please share the test call associated with `CC1=CC(=O)/C(=C(/C)O)C(=O)O1` .
Given back: inactive

Asked: Please share the test call associated with `O=C1O[C@H]([C@@H](O)CO)C(O)=C1O` .
Given back: inactive

Asked: Please share the test call associated with `CN(C)c1ccc(C(=C2C=CC(=[N+](C)C)C=C2)c2ccc(N(C)C)cc2)cc1` .
Given back: active

Asked: Please share the test call associated with `c1ccc2ccccc2c1` .
Given back: inactive

Asked: Please share the test call associated with `CCN(Cc1cccc(S(=O)(=O)O)c1)c1ccc(C(=C2C=CC(=[N+](CC)Cc3cccc(S(=O)(=O)O)c3)C=C2)c2ccccc2S(=O)(=O)[O-])cc1` .
Given back: inactive

Asked: Please share the test call associated with `Cc1cn([C@H]2C[C@H](N=[N+]=[N-])[C@@H](CO)O2)c(=O)[nH]c1=O` .
Given back: inactive

Asked: Please share the test call associated with `CC/C(=C(/CC)c1ccc(O)cc1)c1ccc(O)cc1` .
Given back: active

Asked: Please share the test call associated with `CCCCCCCCCCCO` .
Given back: inactive

Asked: Please share the test call associated with `CCCCOC(=O)CC(CC(=O)OCCCC)(OC(C)=O)C(=O)OCCCC` .
Given back: inactive

Asked: Please share the test call associated with `CCOC(=O)O[C@H](C)OC(=O)c1ccc2c(c1)cc(C(=O)NC1CCN(C(C)C)CC1)n2Cc1cc(-c2ccc(Cl)s2)on1` .
Given back: inactive

Asked: Please share the test call associated with `CC(C)(c1cc(Br)c(O)c(Br)c1)c1cc(Br)c(O)c(Br)c1` .
Given back: inactive
